These measurements were taken from ChEMBL document CHEMBL2218924.

- measurement_target: Ribosomal protein S6 kinase alpha-3 (Homo sapiens) (UniProt P51812)
- Sequence (P51812 whole entry): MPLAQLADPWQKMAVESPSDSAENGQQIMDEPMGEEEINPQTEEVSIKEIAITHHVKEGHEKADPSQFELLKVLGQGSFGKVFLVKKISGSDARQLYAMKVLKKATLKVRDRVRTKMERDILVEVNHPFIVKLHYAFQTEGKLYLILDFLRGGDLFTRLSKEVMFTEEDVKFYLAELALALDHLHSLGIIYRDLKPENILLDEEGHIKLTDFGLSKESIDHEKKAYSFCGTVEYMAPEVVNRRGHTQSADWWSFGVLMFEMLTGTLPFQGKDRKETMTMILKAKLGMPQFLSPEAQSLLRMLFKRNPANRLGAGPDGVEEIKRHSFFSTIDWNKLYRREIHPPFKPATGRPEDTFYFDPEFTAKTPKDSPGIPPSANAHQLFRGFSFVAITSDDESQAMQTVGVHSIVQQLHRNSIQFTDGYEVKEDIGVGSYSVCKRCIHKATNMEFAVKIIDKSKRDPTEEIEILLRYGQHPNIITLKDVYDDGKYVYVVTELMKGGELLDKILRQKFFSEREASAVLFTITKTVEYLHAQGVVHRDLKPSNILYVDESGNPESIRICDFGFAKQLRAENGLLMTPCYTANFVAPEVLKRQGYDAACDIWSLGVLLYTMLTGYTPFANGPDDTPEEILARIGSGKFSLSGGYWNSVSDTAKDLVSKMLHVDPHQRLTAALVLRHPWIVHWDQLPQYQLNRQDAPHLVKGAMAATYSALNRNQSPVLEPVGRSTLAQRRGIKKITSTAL
- experimental_conditions: at 1 µM
Please note: residual activity exactly at 60% is N. Only values below 60% get Y.

[
  {
    "chemical_string": "COc1cc2ncnc(Nc3ccc(NC(=O)c4ccccc4)cc3)c2cc1OC",
    "measurement_target": "Ribosomal protein S6 kinase alpha-3 (Homo sapiens) (UniProt P51812)",
    "class_label": "N"
  },
  {
    "chemical_string": "c1ccc2c(-c3ccncc3)c[nH]c2c1",
    "measurement_target": "Ribosomal protein S6 kinase alpha-3 (Homo sapiens) (UniProt P51812)",
    "class_label": "N"
  },
  {
    "chemical_string": "Cc1cc2ncc(-c3ccccc3)nc2cc1C",
    "measurement_target": "Ribosomal protein S6 kinase alpha-3 (Homo sapiens) (UniProt P51812)",
    "class_label": "Y"
  },
  {
    "chemical_string": "NC(=O)c1ccc2[nH]c(-c3ccc(Oc4ccc(Cl)cc4)cc3)nc2c1",
    "measurement_target": "Ribosomal protein S6 kinase alpha-3 (Homo sapiens) (UniProt P51812)",
    "class_label": "Y"
  },
  {
    "chemical_string": "O=C1c2ccccc2-[n+]2ccc3c([nH]c4ccccc43)c21",
    "measurement_target": "Ribosomal protein S6 kinase alpha-3 (Homo sapiens) (UniProt P51812)",
    "class_label": "Y"
  },
  {
    "chemical_string": "CO[C@H]1[C@@H](OC)C[C@H](C)[C@@H](OC)C2=CC(=O)C=C(NC(=O)/C(C)=C/C=C/[C@H](OC)[C@@H](OC(N)=O)/C(C)=C/[C@@H]1C)C2=O",
    "measurement_target": "Ribosomal protein S6 kinase alpha-3 (Homo sapiens) (UniProt P51812)",
    "class_label": "Y"
  },
  {
    "chemical_string": "COc1ccc(C(=O)Nc2sc3c(c2C(N)=O)CCCC3)cc1OC",
    "measurement_target": "Ribosomal protein S6 kinase alpha-3 (Homo sapiens) (UniProt P51812)",
    "class_label": "N"
  },
  {
    "chemical_string": "Oc1n[nH]c2nnc(-c3c(-c4ccccc4)nn4ccccc34)cc12",
    "measurement_target": "Ribosomal protein S6 kinase alpha-3 (Homo sapiens) (UniProt P51812)",
    "class_label": "N"
  },
  {
    "chemical_string": "Cc1cccc(-c2[nH]c(C(C)(C)C)nc2-c2ccc3c(c2)OCO3)n1",
    "measurement_target": "Ribosomal protein S6 kinase alpha-3 (Homo sapiens) (UniProt P51812)",
    "class_label": "N"
  },
  {
    "chemical_string": "Cn1cnc2cc3c(Nc4cccc(Br)c4)ncnc3cc21",
    "measurement_target": "Ribosomal protein S6 kinase alpha-3 (Homo sapiens) (UniProt P51812)",
    "class_label": "N"
  },
  {
    "chemical_string": "O=C(Nc1cccc(Nc2cc(Nc3cccc(C(F)(F)F)c3)ncn2)c1)C1CC1",
    "measurement_target": "Ribosomal protein S6 kinase alpha-3 (Homo sapiens) (UniProt P51812)",
    "class_label": "N"
  }
]

###

- measurement_target: Serine/threonine-protein kinase 4 (Homo sapiens) (UniProt Q13043)
- Sequence (Q13043 whole entry): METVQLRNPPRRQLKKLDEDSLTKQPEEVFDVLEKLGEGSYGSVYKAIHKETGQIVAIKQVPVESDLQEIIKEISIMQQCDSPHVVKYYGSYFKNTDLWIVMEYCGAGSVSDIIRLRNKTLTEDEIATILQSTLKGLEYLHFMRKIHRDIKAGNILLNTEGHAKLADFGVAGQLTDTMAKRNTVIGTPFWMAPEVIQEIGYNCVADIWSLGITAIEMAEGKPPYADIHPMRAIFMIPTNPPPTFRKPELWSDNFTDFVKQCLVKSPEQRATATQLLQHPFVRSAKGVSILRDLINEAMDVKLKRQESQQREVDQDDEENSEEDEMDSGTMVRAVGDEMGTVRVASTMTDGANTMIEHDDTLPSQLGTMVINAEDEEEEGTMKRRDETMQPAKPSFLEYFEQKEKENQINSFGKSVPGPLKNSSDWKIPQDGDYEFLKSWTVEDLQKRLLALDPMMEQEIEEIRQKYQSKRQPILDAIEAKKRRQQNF
- experimental_conditions: at 10 µM
Criterion: residual activity strictly less than 90%. Met: Met. Not met: Not met.

[
  {
    "chemical_string": "Cc1cncc2cccc(S(=O)(=O)N3CCCN(C(=O)CN)C[C@H]3C)c12",
    "class_label": "Met"
  },
  {
    "chemical_string": "Cc1ccc(S(=O)(=O)/C=C/C#N)cc1",
    "class_label": "Not met"
  },
  {
    "chemical_string": "CC(C)n1cnc2/c(=N/c3cccc(Cl)c3)nc(NCCO)[nH]c21",
    "class_label": "Met"
  },
  {
    "chemical_string": "O=[N+]([O-])c1ccc(-c2nc(-c3ccc(F)cc3)c(-c3ccncc3)[nH]2)cc1",
    "class_label": "Not met"
  },
  {
    "chemical_string": "CCOc1cc2ncnc(Nc3cccc(Br)c3)c2cc1OCC",
    "class_label": "Met"
  },
  {
    "chemical_string": "O=C1NC(=O)c2c1c1c3ccccc3[nH]c1c1[nH]c3cc(Br)ccc3c21",
    "class_label": "Met"
  },
  {
    "chemical_string": "COc1cc2ncnc(Nc3ccc(NC(=O)c4ccccc4)cc3)c2cc1OC",
    "class_label": "Not met"
  },
  {
    "chemical_string": "Oc1c2ccccc2c2c3c(cccc13)N=N2",
    "class_label": "Met"
  }
]
